Source of measurements: patent US20110195494A1

- experimentalSystem: T1, recombinant human DLL4, C-terminally His-tagged extracellular domain (R&D Systems) (human, UniProt Q9NR61 25-522, biotinylated where used in competition ELISA, AlphaScreen and on SA chips)
- T1 construct: also called rhDLL4; hDLL4; not shown: C-terminal His tag
- T1 sequence (Q9NR61 25-522): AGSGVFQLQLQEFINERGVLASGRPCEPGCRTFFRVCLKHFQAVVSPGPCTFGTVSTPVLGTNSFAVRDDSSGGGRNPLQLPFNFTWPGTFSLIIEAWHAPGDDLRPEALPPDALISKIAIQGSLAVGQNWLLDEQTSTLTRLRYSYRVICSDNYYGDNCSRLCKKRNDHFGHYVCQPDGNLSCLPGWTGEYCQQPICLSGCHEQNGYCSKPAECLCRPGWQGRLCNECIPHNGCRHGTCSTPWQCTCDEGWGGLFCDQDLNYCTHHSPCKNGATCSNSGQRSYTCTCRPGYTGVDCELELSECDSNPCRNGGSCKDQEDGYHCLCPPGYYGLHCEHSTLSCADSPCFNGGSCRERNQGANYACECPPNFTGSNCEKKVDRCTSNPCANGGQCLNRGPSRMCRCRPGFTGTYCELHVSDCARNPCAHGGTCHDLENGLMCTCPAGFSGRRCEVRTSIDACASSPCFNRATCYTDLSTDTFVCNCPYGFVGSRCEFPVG
- testMethodNotes: hDLL4/hNotch1-Fc AlphaScreen, periplasmic extract
The threshold is inclusive: Alpha Screen hDLL4 % inhibition of exactly 80% counts as criterion met; values below receive criterion not met.

[
  {
    "binder": "DLLBII19D10 (VHH, tested as periplasmic extract; not shown: C-terminal c-myc tag and His6 tag) VHH: EVQLVESGGGLVQAGDSLRLSCAASGRTVGSYDMSWVRQGPGKEREWVSSINSGVGKTYYADSVKGRFTIFRDNAKNMVYLQMNNLKPEDTAVYYCATEMDGSRYVEGQGTQVTVSS",
    "category": "criterion met"
  },
  {
    "binder": "DLLBII17C01 (VHH, tested as periplasmic extract; also called DLLBII17C1; not shown: C-terminal c-myc tag and His6 tag) VHH: EVQLVESGGGLVQAGGSLRLSCAASGFTFDDYPIGWLRQAPGKEREGVSCISSSDDSTYYADSVKGRFTISSNNAKNTVYLQMNSLKPEDTAVYYCAVRLFSGGCAVVAGTSWADFGSSGQGTQVTVSS",
    "category": "criterion met"
  }
]

q: Reported Alpha Screen hDLL4 % inhibition reaches at least 80% for DLLBII28B06 (VHH, tested as periplasmic extract; also called DLLBII28B6; not shown: C-terminal c-myc tag and His6 tag) VHH: EVQLVESGGGLVQAGGSLRLSCAASGSTFSTYAMGWYRQDPGNQRELVAAISSDGSTHYADSVKGRFTISRDNAKNTVYLQMNSLKPEDTAVYYCYAPVKVAGLEYDYWGQGTQVTVSS ?
a: criterion not met

q: Reported Alpha Screen hDLL4 % inhibition reaches at least 80% for DLLBII19F12 (VHH, tested as periplasmic extract; not shown: C-terminal c-myc tag and His6 tag) VHH: EVQLVESGGGLVQAGGSLRLSCTASGSTFTSYAMGWYRQAPGKQRELVAAISSDDSTYYADCVKGRFTISRDNAKNTVYLQMNSLKPEDTAVYYCNAPHSDYDEEAPSDFGSWGQGTQVTVSS ?
a: criterion met
